// data source = the array DNA melting data of Ke et al. (doi:10.1101/2024.01.08.574731)

method notes: melting temperature; fluorescence melt of hairpins on a sequencing array, two-state fit, raised by 9.35 °C to match UV melts
condition summary: sodium 0.088 M
Under this convention, YES denotes Tm strictly below 40 °C and NO denotes Tm at or above 40 °C.

{"record sequence": "GATCATAATTATGATC ((((((....))))))", "assigned label": "NO"}
{"record sequence": "GCAAGGCGAAAGCCCTGC (((.(((....))).)))", "assigned label": "NO"}
{"record sequence": "GTAGGCGCGAAAGCGTAC (((..(((....))))))", "assigned label": "YES"}
{"record sequence": "GTCAATGGAAACATTGGC (.(((((....))))).)", "assigned label": "NO"}
{"record sequence": "GTCGACGGAAACACCGAC ((((..(....)..))))", "assigned label": "YES"}
{"record sequence": "CGAGCGGAAACGCTATCG ((((((....)))..)))", "assigned label": "YES"}
{"record sequence": "GTCGGTCGAAAGACAGAC (((.(((....))).)))", "assigned label": "NO"}
{"record sequence": "GGTTCCACGAAAGTGACC (((..(((....))))))", "assigned label": "YES"}
{"record sequence": "GTCCAAACGAAAGTTGAC (((..(((....))))))", "assigned label": "YES"}
{"record sequence": "GAATCCGAAAGGATTTC ((((((....))).)))", "assigned label": "NO"}
{"record sequence": "GATCCCTGGGGGGATC ((((((....))))))", "assigned label": "NO"}
{"record sequence": "GGATTCGAAAGAAGATCC ((((((....)))..)))", "assigned label": "YES"}
{"record sequence": "GCCAGGTCGAAAGACGGC (((..(((....))))))", "assigned label": "NO"}
{"record sequence": "GCGATGCGAAAGCCCCGC (((..((....))..)))", "assigned label": "NO"}
{"record sequence": "GCTTGCTCGAAAGAGAGC (((..(((....))))))", "assigned label": "NO"}
{"record sequence": "GCAAGCGAAAGCTGATGC ((((((....)))..)))", "assigned label": "NO"}
{"record sequence": "GCCCGCGGAAACGCGGAC (.(((((....))))).)", "assigned label": "NO"}
{"record sequence": "GGCTACGAAAGTATTGCC ((((((....)))..)))", "assigned label": "NO"}
{"record sequence": "GAGATGGGAAACTGTCTC ((((..(....)..))))", "assigned label": "YES"}
{"record sequence": "GCGGGCATCCGC ((((....))))", "assigned label": "NO"}
{"record sequence": "GATCTGCTCCCAGATC ((((((....))))))", "assigned label": "NO"}
{"record sequence": "GCGTGTGGAAACACATGC ((.((((....)))).))", "assigned label": "NO"}
{"record sequence": "GTATGGGGAAACCTATAC ((((.((....)).))))", "assigned label": "YES"}
{"record sequence": "GTCGGGACGAAAGTCGAC (((..(((....))))))", "assigned label": "NO"}

* * *

method notes: folding enthalpy; higher = less favourable; fluorescence melt of hairpins on a sequencing array, two-state fit
condition summary: sodium 0.088 M
Quick reference for folding enthalpy among some sequences
observation type: folding enthalpy

{"record sequence": "GCCACGGGAAACCGTAGC ((.((((....)))).))", "observation type": "folding enthalpy", "observed value": "-23.2 kcal/mol"}
{"record sequence": "GCGTTAGAAATAACGC ((((((....))))))", "observation type": "folding enthalpy", "observed value": "-37.8 kcal/mol"}
{"record sequence": "GCTGCCGGAAACGGTGGC ((..(((....)))..))", "observation type": "folding enthalpy", "observed value": "-40 kcal/mol"}
{"record sequence": "GAATTGCGAAAGCAGTTC (((.(((....))).)))", "observation type": "folding enthalpy", "observed value": "-30.3 kcal/mol"}
{"record sequence": "GTCCCCGGAAACGGAGAC (((.(((....))).)))", "observation type": "folding enthalpy", "observed value": "-28 kcal/mol"}
{"record sequence": "GATCATCCATATGATC ((((((....))))))", "observation type": "folding enthalpy", "observed value": "-34.9 kcal/mol"}
{"record sequence": "GCCCTGCGAAAGCAGTGC ((.((((....)))).))", "observation type": "folding enthalpy", "observed value": "-17.3 kcal/mol"}
{"record sequence": "GCTGCGACGAAAGTCAGC (((..(((....))))))", "observation type": "folding enthalpy", "observed value": "-13.4 kcal/mol"}
{"record sequence": "GCTTTCACGAAAGTGAGC (((..(((....))))))", "observation type": "folding enthalpy", "observed value": "-11.2 kcal/mol"}
{"record sequence": "GAAGTGGAAACACTTC ((((((....))))))", "observation type": "folding enthalpy", "observed value": "-33.7 kcal/mol"}
{"record sequence": "GGTTACGAAAGTAAGACC ((((((....)))..)))", "observation type": "folding enthalpy", "observed value": "-15 kcal/mol"}
{"record sequence": "GGATCACGAAAGTGTCC (((.(((....))))))", "observation type": "folding enthalpy", "observed value": "-25.4 kcal/mol"}

* * *

method notes: melting temperature; fluorescence melt of hairpins on a sequencing array, two-state fit, raised by 9.35 °C to match UV melts
condition summary: sodium 0.088 M
Use 50 °C as the dividing line for Tm, with the line itself on the rule met side and lower values as rule not met.

{"record sequence": "CGTCGACGGAAACGTACG (((..(((....))))))", "assigned label": "rule not met"}
{"record sequence": "GACCATGAAAATGGTC ((((((....))))))", "assigned label": "rule met"}
{"record sequence": "GTCAACGAAAGTTAGGAC ((((((....)))..)))", "assigned label": "rule not met"}
{"record sequence": "GACGTTGGAAACAACACC (..((((....))))..)", "assigned label": "rule not met"}
{"record sequence": "GACACCGAAAGGTGGTC ((((((....))).)))", "assigned label": "rule met"}
{"record sequence": "GGAGACGCGAAAGCGTCC (((..(((....))))))", "assigned label": "rule not met"}
{"record sequence": "GGGGACCGAAAGGTTCCC (((.(((....))).)))", "assigned label": "rule met"}
{"record sequence": "GCAAACGGAAACGCTTGC ((((.((....)).))))", "assigned label": "rule not met"}
{"record sequence": "GGCTATGGAAACATGGCC (((.(((....))).)))", "assigned label": "rule met"}
{"record sequence": "GATCGAGGGCTCGATC ((((((....))))))", "assigned label": "rule met"}
{"record sequence": "GTCATCGAAAGATAGAC ((((((....))).)))", "assigned label": "rule not met"}
{"record sequence": "GTCAAACGAAAGTTAGAC (((.(((....))).)))", "assigned label": "rule not met"}
{"record sequence": "GGACGGAAACGTCC (((((....)))))", "assigned label": "rule met"}
{"record sequence": "GAGCACGGAAACGTGTTC ((.((((....)))).))", "assigned label": "rule met"}
{"record sequence": "GAAGAGCCGAAAGGCTTC (((..(((....))))))", "assigned label": "rule not met"}
{"record sequence": "GAACACGGAAACGTATTC (((.(((....))).)))", "assigned label": "rule not met"}
{"record sequence": "GGTCGCGAAAGCGTCACC ((((((....)))..)))", "assigned label": "rule not met"}
{"record sequence": "GCCTCGCGAAAGCTAGGC ((((.((....)).))))", "assigned label": "rule met"}
{"record sequence": "CGGAACCGGAAACGGCCG (((..(((....))))))", "assigned label": "rule not met"}
{"record sequence": "GATCGGACTCCGATC ((((((...))))))", "assigned label": "rule met"}
{"record sequence": "GGAGGGGGAAACTCCTCC (((((.(....).)))))", "assigned label": "rule met"}
{"record sequence": "GGTTTGCGAAAGCAGACC (((.(((....))).)))", "assigned label": "rule met"}
{"record sequence": "GAACCCCGAAAGGGATTC (((.(((....))).)))", "assigned label": "rule not met"}
{"record sequence": "GCTTTCGAAAGAACGAGC ((((((....)))..)))", "assigned label": "rule not met"}
{"record sequence": "GATCTCAAAGGAGATC ((((((....))))))", "assigned label": "rule not met"}
{"record sequence": "GTGGGTCGAAAGACGCAC (((.(((....))).)))", "assigned label": "rule met"}
{"record sequence": "GTCTACGAAAGTAGGAC ((((((....))).)))", "assigned label": "rule not met"}
{"record sequence": "GCGACAGTTCGC ((((....))))", "assigned label": "rule not met"}
{"record sequence": "GAATGCGAAAGCACTTC ((((((....))).)))", "assigned label": "rule not met"}
{"record sequence": "GATCATTTCAATGATC ((((((....))))))", "assigned label": "rule met"}
{"record sequence": "GGAGACCCGAAAGGGTCC (((..(((....))))))", "assigned label": "rule not met"}
{"record sequence": "GCTAGCGGAAACACTAGC (((((.(....).)))))", "assigned label": "rule not met"}
{"record sequence": "ATTCGGAAACGAAT (((((....)))))", "assigned label": "rule not met"}
{"record sequence": "GCTCCCGAAAGGGCTAGC ((((((....)))..)))", "assigned label": "rule not met"}
{"record sequence": "GATCCGTGATCGGATC ((((((....))))))", "assigned label": "rule met"}
{"record sequence": "GTGAATGGAAACATTCAC (((((((....)))))))", "assigned label": "rule met"}
{"record sequence": "GTGGAGCGAAAGCTTCAC (((.(((....))).)))", "assigned label": "rule met"}
{"record sequence": "GATTCGGGAAACCGAATC (((((((....)))))))", "assigned label": "rule met"}
{"record sequence": "AAGATGAAAATCTT (((((....)))))", "assigned label": "rule not met"}
{"record sequence": "GGATGCGGAAACGCACCC ((.((((....)))).))", "assigned label": "rule met"}
{"record sequence": "GCATCCGAAAGGATTGC ((((((....))).)))", "assigned label": "rule met"}
{"record sequence": "GACGACGAAAGTCAGGTC ((((((....)))..)))", "assigned label": "rule not met"}
{"record sequence": "AACGAGAAATCGTT (((((....)))))", "assigned label": "rule not met"}
{"record sequence": "GTAGTAGGAAACTGCTAC ((((.((....)).))))", "assigned label": "rule not met"}
{"record sequence": "GCACACGAAAGTGCTTGC ((((((....)))..)))", "assigned label": "rule met"}
{"record sequence": "GGGCATGGAAACGTGCCC (((((.(....).)))))", "assigned label": "rule met"}
